- study target: Lysosomal acid glucosylceramidase (Homo sapiens) (UniProt P04062)
- Sequence (P04062 whole entry, looked up): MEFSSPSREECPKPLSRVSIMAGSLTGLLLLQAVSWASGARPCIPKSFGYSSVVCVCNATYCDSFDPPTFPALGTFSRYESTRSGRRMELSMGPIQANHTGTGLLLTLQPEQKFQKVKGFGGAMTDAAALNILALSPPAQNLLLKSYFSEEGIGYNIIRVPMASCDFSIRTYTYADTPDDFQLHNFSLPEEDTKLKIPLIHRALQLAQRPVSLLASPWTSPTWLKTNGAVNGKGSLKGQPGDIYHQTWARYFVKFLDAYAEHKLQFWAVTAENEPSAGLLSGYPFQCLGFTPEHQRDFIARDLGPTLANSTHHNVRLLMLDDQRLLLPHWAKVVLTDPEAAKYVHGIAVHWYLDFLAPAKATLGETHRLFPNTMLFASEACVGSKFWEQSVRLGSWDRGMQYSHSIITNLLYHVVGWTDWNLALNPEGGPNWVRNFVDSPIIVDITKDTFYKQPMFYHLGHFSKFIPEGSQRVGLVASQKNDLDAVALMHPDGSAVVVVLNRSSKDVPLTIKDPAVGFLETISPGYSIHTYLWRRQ
- test: qHTS Assay for Inhibitors and Activators of N370S glucocerebrosidase as a Potential Chaperone Treatment of Gaucher Disease: Activity in Non-Mutant Spleen Homogenate Using a Red Fluorescent Substrate
- conditions: red fluorogenic substrate GCase activity; series mostly up to 50.2 µM
Results filed as inconclusive are left out. Active and inactive are the calls of the source. Calls come from the whole dose curve; as a rule, active = well fitted inhibition curve with a large enough effect; inconclusive = small, poorly fitted or top-dose-only effect, or effect the other way; inactive = flat fitted curve, though single readings scatter.
experimental readout: Potency

Some entries whose results are on file:
[[record]]
molecule = "CCN(CC)c1cc(C)c2cc(NC(=O)C3CCC(C)CC3)ccc2n1 (centres undefined)"
result = "15800 nM (active)"

[[record]]
molecule = "Cc1cc(C)cc(N(CC(=O)NC2CCC(C)CC2)S(=O)(=O)c2c(C)[nH]c(=O)[nH]c2=O)c1 (centres undefined)"
result = "398 nM (active)"

[[record]]
molecule = "O=S(=O)(c1ccc2c(c1)OCCO2)N1CCN(c2nc(-c3cccs3)nc3ccccc23)CC1"
result = "141 nM (active)"

[[record]]
molecule = "Nc1nc(-c2ccccc2)c(N=Nc2ccc(Cl)cc2)s1"
result = "inactive"

[[record]]
molecule = "O=S(=O)(c1ccc(OC(F)(F)F)cc1)N1CCN(c2nc(-c3cccs3)nc3ccccc23)CC1"
result = "3980 nM (active)"

[[record]]
molecule = "CC1(C)CC(=O)C2=C(C1)c1c(ccc3ccccc13)NC2c1ccc(Br)o1 (centres undefined)"
result = "inactive"

[[record]]
molecule = "COc1ccccc1OCC(=O)Nc1oc(-c2ccccc2)c(-c2ccccc2)c1C#N"
result = "inactive"

[[record]]
molecule = "O=S(=O)(c1ccc(Cl)cc1)N1CCN(c2nc(-c3ccc(F)cc3)nc3cc(Cl)ccc23)CC1"
result = "inactive"

[[record]]
molecule = "S=C(NCCCc1cnc[nH]1)NCCCN(Cc1ccc(Cl)c(Cl)c1)c1ccc(Br)cn1"
result = "1000 nM (active)"

[[record]]
molecule = "COc1ccc(S(=O)(=O)N2CCN(c3nc(-c4cccs4)nc4ccccc34)CC2)cc1OC"
result = "224 nM (active)"


Reported Potency ( O=S(=O)(c1ccccc1C(F)(F)F)N1CCN(c2nc(-c3cccs3)nc3ccccc23)CC1 ) = 224 nM (active)

Per the records, this molecule ( COc1cccc(NC(=O)CSc2nc3ccccc3c(=O)n2Cc2cccs2)c1 ) has Potency equal to inactive

Potency in this record for CCCNC(=O)COC(=O)c1ccccc1OCC(=O)Nc1ccc(Br)cc1 : inactive

// Potency value for O=S(=O)(c1ccc(Br)cc1)N1CCN(c2nc(-c3cccs3)nc3ccccc23)CC1 : 794 nM (active)

Potency recorded for this molecule, COc1ccc(-c2nc(N3CCN(S(=O)(=O)c4ccc(F)cc4)CC3)c3ccccc3n2)cc1 , is inactive

Data point: O=S(=O)(c1ccc(F)cc1)N1CCN(c2nc(-c3ccccc3)nc3cc(Cl)ccc23)CC1 ; Potency = inactive
